Target: HLA-A*0301 (human)
Assay: competition with 125I-labeled standard peptide for purified HLA, gel filtration
Consider the following binders and their measured relative binding ratio (IC50 of standard peptide / IC50 of test peptide) readings.

MMIEPPKLR (modifications not checked) [HPV16 E1 peptide … (position 305, 9 amino acids)]	0.001
MSFLTALKR (modifications not checked) [HPV16 E1 peptide … (position 454, 9 amino acids)]	0.087
NVLKTSNAK (modifications not checked) [HPV16 E1 peptide … (position 196, 9 amino acids)]	0.0005
QMSMSQWIK (modifications not checked) [HPV16 E1 peptide … (position 419, 9 amino acids)]	0.0023
SVICFVNSK (modifications not checked) [HPV16 E1 peptide … (position 497, 9 amino acids)]	0.0005

query: Hello, please tell me recorded relative binding ratio (IC50 of standard peptide / IC50 of test peptide) for this one: RLKAICIEK (modifications not checked) [HPV16 E1 peptide … (position 109, 9 amino acids)]
result: 0.084

query: Hello, please tell me recorded relative binding ratio (IC50 of standard peptide / IC50 of test peptide) for this one: NAKAAMLAK (modifications not checked) [HPV16 E1 peptide … (position 202, 9 amino acids)]
result: 0.0005

query: Hello, please tell me recorded relative binding ratio (IC50 of standard peptide / IC50 of test peptide) for this one: TAAALYWYK (modifications not checked) [HPV16 E1 peptide … (position 315, 9 amino acids)]
result: 0.78
